Test system: Escherichia coli
Experiment: Antibacterial activity against acrAB deficient Escherichia coli 1411
Assay type: functional
MEASUREMENT TYPE: MIC (µg/mL)

Example molecules with recorded MIC:
# MOLECULE, ENDPOINT VALUE
measured = [
    ("O=C(/N=N/C(=O)Nc1ccccc1)NCc1cccnc1", 64),
    ("O=C(/N=N/C(=O)Nc1cccc(Cl)c1)NCc1cccnc1", 64),
]

(P) O=C(/N=N/C(=O)Nc1ccc(F)cc1)NCc1ccncc1
(Q) O=C(/N=N/C(=O)Nc1ccccc1)NCc1ccncc1
(R) O=C(/N=N/C(=O)NC1CCCCC1)NCc1ccncc1
(S) O=C(/N=N/C(=O)NCc1ccncc1)NCCCl
Parameters: sort_field (MIC), sort_dir (desc). Please respond by ranking the labels in the order requested.
R, S, P, Q

---

Assay: Inhibition of Escherichia coli DdlB
pIC50: −log10 of the molar value.
MEASUREMENT TYPE: pIC50

# COMPOUND, pIC50
rows = [
    ("O=C(/N=N/C(=O)Nc1cccc(Cl)c1)NCc1ccncc1", 4.48),
    ("O=C(/N=N/C(=O)NC1CCCCC1)NCc1ccncc1", 3.92),
    ("O=C(/N=N/C(=O)NCc1ccccn1)NCCCl", 3.92),
    ("O=C(/N=N/C(=O)NCc1cccnc1)NCc1cccnc1", 3.91),
    ("O=C(/N=N/C(=O)NCc1ccncc1)NCCCl", 3.63),
]

(1) O=C(/N=N/C(=O)Nc1ccccc1)NCc1cccnc1
(2) O=C(/N=N/C(=O)Nc1ccc(F)cc1)NCc1ccncc1
(3) O=C(/N=N/C(=O)NCCCl)NCCCl
Sort entries by pIC50 from minimum to maximum value. Please respond by ranking the labels in the order requested.
3, 2, 1
(3: 3.88, 2: 4.14, 1: 4.44)

---

System: Escherichia coli
Assay: Antibacterial activity against acrAB deficient Escherichia coli 1411
Format: functional
MEASUREMENT TYPE: MIC

Example compounds with recorded MIC:
# COMPOUND, TARGET DESC, MIC
data = [
    ("CC(C)c1ccc(NC(=O)/N=N/C(=O)NCCCl)cc1", "Escherichia coli", "> 256 µg/mL"),
    ("N[C@@H]1CONC1=O [CYCLOSERINE]", "Escherichia coli", "16 µg/mL"),
    ("O=C(/N=N/C(=O)Nc1cccc(Cl)c1)NCc1ccncc1", "Escherichia coli", "64 µg/mL"),
    ("O=C(/N=N/C(=O)NCCCl)NCCCl", "Escherichia coli", "> 256 µg/mL"),
    ("O=C(/N=N/C(=O)NCc1ccccn1)NCCCl", "Escherichia coli", "> 256 µg/mL"),
]

What value of measured MIC is listed for CCC(C)c1ccc(NC(=O)/N=N/C(=O)NCCCl)cc1 (stereo not drawn) ?
> 256 µg/mL

Follow-up entry: O=C(/N=N/C(=O)Nc1ccccc1)NCc1ccccn1
64 µg/mL

Follow-up entry: O=C(/N=N/C(=O)NCc1cccnc1)NCc1cccnc1
> 256 µg/mL

---

Assay: Inhibition of Escherichia coli DdlB
MEASUREMENT TYPE: IC50 (µM)

# COMPOUND, UNIT SYMBOL, IC50
records = [
    ("O=C(/N=N/C(=O)Nc1ccccc1)NCc1ccccn1", "µM", 111),
]

(P) O=C(/N=N/C(=O)Nc1ccccc1)NCc1ccncc1
(Q) O=C(/N=N/C(=O)Nc1cccc(Cl)c1)NCc1cccnc1
Hi, I'm comparing two records. Which one has the lower IC50, P or Q ? Refer to your chosen entry by its label in the reply.
Q

---

Entries and their pIC50 values follow.
Experiment: Inhibition of Escherichia coli DdlB
// pIC50: -log10(molar conc.)

Example molecules with recorded pIC50:
# MOLECULE, MEASUREMENT TYPE, ENDPOINT VALUE
data = [
    ("CCC(C)c1ccc(NC(=O)/N=N/C(=O)NCCCl)cc1 (stereo not given)", "pIC50", 4.60),
    ("CC(C)c1ccc(NC(=O)/N=N/C(=O)NCCCl)cc1", "pIC50", 4.31),
]

Then this molecule:
What value of measured pIC50 is listed for N[C@@H]1CONC1=O ?
3.50
